# Assay overview: Pharmacokinetics in nonhuman primates
# Type: in vivo, Cynomolgus monkeys
# Experimental setup: cynomolgus monkey, plasma, iv, 5 mg/kg
Readout name: half-life (min)

* CN(C)c1ccc(O)c2c1C[C@H]1C[C@H]3[C@H](N(C)C)C(O)=C(C(N)=O)C(=O)[C@@]3(O)C(O)=C1C2=O | 624
* CN(C)c1cc(NC(=O)CNC(C)(C)C)c(O)c2c1C[C@H]1C[C@H]3[C@H](N(C)C)C(O)=C(C(N)=O)C(=O)[C@@]3(O)C(O)=C1C2=O | 654

---

# Assay overview: Pharmacokinetics in nonhuman primates
# Format: in vivo, Cynomolgus monkeys
# Experimental setup: cynomolgus monkey, plasma, iv, 2.6 mg/kg
Readout name: Tmax (min)
Provide the reading as a plain figure in min.

Quick note, Tmax for `CN(C)c1cc(CNCC(C)(C)C)c(O)c2c1C[C@H]1C[C@H]3[C@H](N(C)C)C(O)=C(C(N)=O)C(=O)[C@@]3(O)C(O)=C1C2=O` landed at 12

---

# Assay overview: Pharmacokinetics in nonhuman primates
# Type: in vivo, Cynomolgus monkeys
# Experimental setup: cynomolgus monkey, plasma, iv, 2.6 mg/kg
Readout name: half-life (h)
Provide the reading as a plain figure in h.

Quick note, half-life for CN(C)c1cc(CNCC(C)(C)C)c(O)c2c1C[C@H]1C[C@H]3[C@H](N(C)C)C(O)=C(C(N)=O)C(=O)[C@@]3(O)C(O)=C1C2=O [Compound 27, 9-neopentylaminomethylminocycline] landed at 14.4

---

# Assay overview: Pharmacokinetics in nonhuman primates
# Assay type: in vivo, Cynomolgus monkeys
# Experimental setup: cynomolgus monkey, plasma, iv, 5 mg/kg
Readout name: Cmax (ng/mL)

a: CN(C)c1ccc(O)c2c1C[C@H]1C[C@H]3[C@H](N(C)C)C(O)=C(C(N)=O)C(=O)[C@@]3(O)C(O)=C1C2=O
b: CN(C)c1cc(NC(=O)CNC(C)(C)C)c(O)c2c1C[C@H]1C[C@H]3[C@H](N(C)C)C(O)=C(C(N)=O)C(=O)[C@@]3(O)C(O)=C1C2=O
Exam item: When the recorded Cmax values are compared, which is smaller: that of a or that of b ? Which one? Tell me its label.
Marked response: a

---

# Assay overview: Pharmacokinetics in nonhuman primates
# Type: in vivo, Cynomolgus monkeys
# Experimental setup: cynomolgus monkey, plasma, po, 5 mg/kg
Readout name: AUC (ng·h/mL)

• CN(C)c1cc(CNCC(C)(C)C)c(O)c2c1C[C@H]1C[C@H]3[C@H](N(C)C)C(O)=C(C(N)=O)C(=O)[C@@]3(O)C(O)=C1C2=O [Compound 27, 9-neopentylaminomethylminocycline] = 5300

1: CN(C)c1cc(NC(=O)CNC(C)(C)C)c(O)c2c1C[C@H]1C[C@H]3[C@H](N(C)C)C(O)=C(C(N)=O)C(=O)[C@@]3(O)C(O)=C1C2=O [Tigecycline, tigecycline]
2: CN(C)c1ccc(O)c2c1C[C@H]1C[C@H]3[C@H](N(C)C)C(O)=C(C(N)=O)C(=O)[C@@]3(O)C(O)=C1C2=O [Minocycline, minocycline]
Exam item: When the recorded AUC values are compared, which is smaller: that of 1 or that of 2 ? Which one? Tell me its label.
Marked response: 1

---

# Assay overview: Pharmacokinetics in nonhuman primates
# Format: in vivo, Cynomolgus monkeys
# Experimental setup: cynomolgus monkey, plasma, po, 5 mg/kg
Readout name: Tmax (h)

- CN(C)c1cc(NC(=O)CNC(C)(C)C)c(O)c2c1C[C@H]1C[C@H]3[C@H](N(C)C)C(O)=C(C(N)=O)C(=O)[C@@]3(O)C(O)=C1C2=O: 4
- CN(C)c1ccc(O)c2c1C[C@H]1C[C@H]3[C@H](N(C)C)C(O)=C(C(N)=O)C(=O)[C@@]3(O)C(O)=C1C2=O: 3
- CN(C)c1cc(CNCC(C)(C)C)c(O)c2c1C[C@H]1C[C@H]3[C@H](N(C)C)C(O)=C(C(N)=O)C(=O)[C@@]3(O)C(O)=C1C2=O: 2.3

Where these numbers come from: paper PMC4604364
